Source: patent US11414424B2

system: bovine cardiac myofibrils; experiment: Myofibril assay: PK/LDH-coupled steady-state ATPase activity of skinned bovine cardiac myofibrils; assay type: biochemical; settings: Ca2+ activating to 75% of maximal rate
measurementName: CDMF75 IC15 (µM)

Below, each entry is followed by its recorded CDMF75 IC15 result.
COCC(C)N1CC(=O)N(Cc2ccc(Cl)cc2)C2(CCN(c3ccccn3)C2)C1=O (stereo not shown) = 8.6
COC(=O)N1CC2(C1)C(=O)N(C(C)C)CC(=O)N2Cc1ccc(Cl)cc1 = 23.6
Cc1ccc(CN2C(=O)CN(c3ncc(Cl)cc3F)C(=O)C2C23CC(C(N)=O)(C2)C3)cc1 (stereo not shown) = 3.8
Cc1ccc(CN2C(=O)CN(c3ncc(Cl)cc3C)C(=O)C2C2COC2)cc1 (stereo not shown) = 11.8
O=C1C(C2CC(O)C2)N(Cc2ccc(F)cc2)C(=O)CN1c1ccc(Cl)cc1F (single isomer, unassigned) [Compound 866C] = 2.3
CC(C)N1CC(=O)N(Cc2cccc(F)c2)C(c2ccc(Cl)cc2)C1=O (stereo not shown) = 7.0
CC(C)N1CC(=O)N(Cc2ccc(Cl)cc2)C2(CN(c3ncccn3)C2)C1=O = 17.4
CC(C)N1CC(=O)N(Cc2ccc(Cl)cc2)C(c2ccc(F)cc2)C1=O (stereo not shown) = 5.9
CC(C)N1CC(=O)N(Cc2ccc(Cl)cc2)C2(CN(c3ccc(=O)[nH]n3)C2)C1=O = 17.8
CC(C)NC(=O)N1CCC2(C1)C(=O)N(C(C)C)CC(=O)N2Cc1ccc(C(F)(F)F)cc1 (stereo not shown) = 16.6

P. O=C1CN(c2ncc(Cl)cc2F)C(=O)C2(COC2)N1Cc1ccc(C(F)(F)F)cc1
Q. CC(C)N1CC(=O)N(Cc2ccc(C(F)(F)F)cc2)C2(CCN(c3ccccc3)C2=O)C1=O (stereo not shown)
R. O=C1C(C2COC2)N(Cc2ccc(C(F)(F)F)cc2)C(=O)CN1c1ccc(Cl)cc1F (stereo not shown)
## Task Please list these compounds in decreasing order of CDMF75 IC15. Answer with the labels in sequence, matching the requested order.
## Result Q, R, P

a. CNC(=O)N1CC2(C1)C(=O)N(c1ccc(OC(F)F)c(F)c1)CC(=O)N2Cc1ccc(C(F)(F)F)cc1
b. CC(=O)N1CC2(C1)C(=O)N(c1ccc(C#N)cc1F)CC(=O)N2Cc1ccc(Cl)cc1
## Task Kindly identify which of a and b has the larger recorded CDMF75 IC15 value. Answer by stating the label of the chosen item.
## Result a
